Data credit: patent US20170183318A1

# System: Staphylococcus aureus
# experiment: Murine model of staphylococcal pneumonia (bacterial growth from lung imprints)
# Format: in vivo, outbred mice
# test-settings: 15 mg/kg orally, 5 days before and 2 days after S. aureus infection; lung imprints on Columbia agar; control 82.5
Measured Bacterial growth, in % values are reported for all entries that follow.
The answer is to be given in %; state only the numeric part.

O=C(O)CCCC(=O)NCCCc1c[nH]cn1 | 55
O=C(O)CCCC(=O)NCCC1CCCCN1 (stereo not drawn) | 45
CC(Cc1cnc[nH]1)NC(=O)CCCC(=O)O (stereo not drawn) | 55

Next up:
Ask: Return Bacterial growth, in % for the following compound: CC(C)N(CCc1cnc[nH]1)C(=O)CCCC(=O)O
Result: 55

* * *

Measured Degree of lung edema on day 5 after infection, score values are reported for all entries that follow.
# System: human respiratory syncytial virus (strain A2)
# experiment: Antiviral activity against RS virus in a murine model of suppressed immune system (lung edema)
# Type: in vivo
# test-settings: Balb/c mice, cyclophosphan-suppressed, RS-virus pneumonia; 30 mg/kg once daily for 5 days; M ± SD, n = 5; scores from possible 4
Starred links: 1 amine or outer side, 2 acyl side, 3 side chain; linkers in the order of their positions; H or OH if unused. Non-standard residues stand in square brackets, D forms with d. Residues, ends and D or L forms follow the SMILES beside them. ξ: configuration not given here. Glutaryl = O=C(CCCC(=O)[*:2])[*:1]; ξH = NC(Cc1c[nH]cn1)C(=O)O
The answer is to be given in score; state only the numeric part.

CC(C)N(CCc1cnc[nH]1)C(=O)CCCC(=O)O | 0.55
O=C(O)CCCC(=O)NCCC1CNCCO1 (stereo not shown) | 1.00
Cc1csc(CCNC(=O)CCCC(=O)O)n1 | 1.15
CC(Cc1cnc[nH]1)NC(=O)CCCC(=O)O (stereo not shown) | 1.60
O=C(O)CCCC(=O)NC(Cc1c[nH]cn1)C(=O)O (stereo not shown) | 0.90

Ask: Return Degree of lung edema on day 5 after infection, score for the following molecule: COC(=O)CNC(=O)C(Cc1c[nH]cn1)NC(=O)CCCC(=O)O (stereo not shown) [Compound 193] (Glutaryl-[ξH]-Gly-OMe)
Result: 0.80

Ask: Return Degree of lung edema on day 5 after infection, score for the following molecule: O=C(O)CCCC(=O)NCCCc1ccccn1
Result: 1.48

Ask: Return Degree of lung edema on day 5 after infection, score for the following molecule: O=C(O)CCCC(=O)NCCC1=NCCN1
Result: 1.6

Ask: Return Degree of lung edema on day 5 after infection, score for the following molecule: COC(=O)C(C)NC(=O)C(Cc1cnc[nH]1)NC(=O)CCCC(=O)O (stereo not shown)
Result: 0.40

Ask: Return Degree of lung edema on day 5 after infection, score for the following molecule: O=C(O)CCCC(=O)NCCc1cscn1
Result: 1.30

* * *

# Test system: Staphylococcus aureus
# experiment: Murine model of staphylococcal pneumonia (bacterial growth from lung imprints)
# Type: in vivo, outbred mice
# test-settings: 30 mg/kg orally, 5 days before and 2 days after S. aureus infection; lung imprints on Columbia agar; control 82.5
observation-type: Bacterial growth, in % (%)
The answer is to be given in %; state only the numeric part.

// below: answered compounds
CC(C)N(CCc1cnc[nH]1)C(=O)CCCC(=O)O [Compound 141] | 40
O=C(O)CCCC(=O)NCCC1CCCCN1 (stereo not drawn) [Compound 6] | 55
Cc1csc(CCNC(=O)CCCC(=O)O)n1 [Compound 197] | 60
O=C(O)CCCC(=O)NCCC1CCCN1 (stereo not drawn) [Compound 2] | 55
O=C(O)CCCC(=O)NCCc1nc2ccccc2s1 [Compound 275] | 40

Next up:
Ask: Find Bacterial growth, in % for O=C(O)CCCC(=O)NC(Cc1c[nH]cn1)C(=O)O (stereo not drawn) [Compound 251] on Staphylococcus aureus and write it down.
Result: 20
